target: Tau; experiment: rat primary cortical neurons, FLIPR, 25 uM ASO
Bases are written 5' to 3'; sugars and linkages follow in the same order, as letters with counts (s phosphorothioate, o phosphodiester; PS: all linkages phosphorothioate). The collection does not say whether C is 5-methylated. l = locked nucleic acid (LNA); d = 2'-deoxy (DNA)
Below, each of the sequences is paired with its reported calcium oscillation score value.
readout_type: calcium oscillation score

| chain_sequence | reported |
| --- | --- |
| GTGATTAACCAATTAACCGA (sugars l3 d14 l3, PS) | 6.48 % of control |
| TCCTTGAAGTCAAGCTTCTC (sugars l3 d14 l3, PS) | 49.8 % of control |
| AATCCATTTATATTCTTTTA (sugars l4 d12 l4, PS) | 38.5 % of control |
| TGTAATTTTCCCTACAT (sugars l3 d11 l3, PS) | 91.3 % of control |
| ATGTTGCCTAATGAGCCACA (sugars l3 d14 l3, PS) | 31.6 % of control |
| CTTTATTTCCAAATTCACT (sugars l4 d10 l1 d1 l3, PS) | 106 % of control |
| TCTAAGTAGACCCTGGCCAC (sugars l3 d14 l3, PS) | 23.8 % of control |
| TTAACTCATCAACACCTTT (sugars l3 d12 l4, PS) | 84 % of control |
| CTACCCCATTTTTGACAT (sugars l3 d13 l2, PS) | 48.7 % of control |
| TTCTTCCTTTGTAATTC (sugars l4 d11 l2, PS) | 43.5 % of control |
| CATGACATTTTAAACCC (sugars l3 d10 l4, PS) | 69.2 % of control |

* * *

target: Tau; test: rat primary cortical neurons, FLIPR, 25 uM ASO
Bases are written 5' to 3'; sugars and linkages follow in the same order, as letters with counts (s phosphorothioate, o phosphodiester; PS: all linkages phosphorothioate). The collection does not say whether C is 5-methylated. l = locked nucleic acid (LNA); d = 2'-deoxy (DNA)

| chain_sequence | calcium oscillation score |
| --- | --- |
| TTAATTTCACCCTCAG (sugars l3 d10 l3, PS) | 41.7 % of control |
| ACCTGGCCACCTCCTG (sugars l3 d10 l3, PS) | 28.6 % of control |
| CTTAATTTCACCCTC (sugars l3 d9 l3, PS) | 122 % of control |
| ACCACATTATCATCCATTCT (sugars l3 d14 l3, PS) | 32.2 % of control |
| GGTGATATTGTCCAGG (sugars l3 d10 l3, PS) | 18.5 % of control |
| AATCCTTAATTTAACCACAT (sugars l4 d13 l3, PS) | 56.8 % of control |
| TACTTTATTCCCTTAACAAT (sugars l2 d14 l4, PS) | 91.3 % of control |
| TAATAGATCTTTCCCCT (sugars l2 d12 l3, PS) | 103 % of control |
| CTCCTATATTCTCAGT (sugars l3 d9 l4, PS) | 73.7 % of control |
| ACAACAAACATCTAAACACC (sugars l3 d13 l4, PS) | 84.5 % of control |
| TCCAGTCCCGTCTTTG (sugars l3 d10 l3, PS) | 11.5 % of control |
